- Test system: CCRF-CEM leukemia
- MEASUREMENT_PROTOCOL: NCI tumour cell line growth inhibition, 48 h
The following compounds are listed with their measured TGI values.
MEASUREMENT_KIND: TGI (µM)

> print(dat)
                            compound.string  measurement.unit  readout.relation  assay.value
1  CCNCCNc1cc(-c2ccc(C(F)(F)F)cc2)c(C#N)c2nc3ccccc3n12                µM                 =        0.683
2                         CC1=CC(=O)C=CC1=O                µM                 =         10.5
3             N#Cc1[nH]c(=O)n(-c2ccccc2)c1N                µM                 >           10

Where do these numbers come from? They come from PubChem BioAssay (NCI).
